molecular target: T1, monomeric human CSF1R ectodomain protein (human, UniProt P07333 20-517); assay: SPR Biacore, IgG captured, monomeric CSF1R analyte
T1 construct: also called biotinylated monomeric human CSF1R
Listing: kon of selected binders
property: kon (M⁻¹ s⁻¹)

• 29H09 (antibody, human IgG4, V domains shown, Library-derived clone, tested as human IgG4(S228P)/Ckappa IgG; framework residue limits counted on the grafts) VH: QVQLVQSGAEVKKPGSSVKVSCKASGYTFTSYYMIWVRQAPGQGLEWMGDINPYNGGANYAQKFQGRVTITADESTSTAYMELSSLRSEDTAVYYCAREGPYFSNLYVMDYWGQGTLVTVSS VL: EIVLTQSPATLSLSPGERATLSCRASQSVSYEGENYLNWYQQKPGQAPRLLIYAASNRATGIPARFSGSGSGTDFTLTISSLEPEDFAVYYCQLSNEDLLTFGGGTKVEIK = 1.8e+06
• 30E06 (antibody, human IgG4, V domains shown, Library-derived clone; tested as human IgG4(S228P) / human Ckappa IgG; also called 30E6; mAb-3) VH: QVQLVQSGAEVKKPGSSVKVSCKASGYTFTSYYMIWVRQAPGQGLEWMGDINPYNGGTTYAQKFQGRVTITADESTSTAYMELSSLRSEDTAVYYCAREGPYFSNLYVMDYWGQGTLVTVSS VL: EIVLTQSPATLSLSPGERATLSCRASQSVSYEGENYLAWYQQKPGQAPRLLIYAASNLATGIPARFSGSGSGTDFTLTISSLEPEDFAVYYCQLSNEDLLTFGGGTKVEIK = 1.9e+06
• MH5 (antibody, human IgG4, V domains shown, Designer (maximally humanized) clone; tested as human IgG4(S228P)/Ckappa IgG; also called mAb-2) VH: QVQLVQSGAEVKKPGSSVKVSCKASGYTFSSYYMIWVRQAPGQGLEWMGDINPYNGGANYAQKFQGRVTITADESTSTAYMELSSLRSEDTAVYYCAREGPYFSNLYVMDYWGQGTLVTVSS VL: EIVLTQSPATLSLSPGERATLSCRASQSVSYEGENYLNWYQQKPGQAPRLLIYAASNRATGIPARFSGSGSGTDFTLTISSPEPEDFAVYYCQLSNEDLLTFGGGTKVEIK = 1.7e+06

Data origin, for the record: patent US20210301026A1
